system-under-test: UniProtKB P10275
assay-method-text: AR-VP16 DNA Binding Assay, antagonist mode (HepG2 cells, 0.1 nM R1881)
measurement-name: IC50

Solved cases below.
- CCOC(=O)CCNC(=O)c1ccc(N2C(=S)N(c3cnc(C#N)c(C(F)(F)F)c3)C(=O)C23CCC3)cc1F: > 1000 nM
- CC(C)(O)CNC(=O)c1ccc(N2C(=S)N(c3cnc(C#N)c(C(F)(F)F)c3)C(=O)C23CCC3)cc1F: > 1000 nM
- Cc1ccc(N2C(=S)N(c3ccc(C#N)c4ncccc34)C(=O)C23CCC3)cc1: < 1000 nM
- N#Cc1ncc(N2C(=O)C3(CCC3)N(c3c(F)ccc(F)c3F)C2=S)cc1C(F)(F)F: < 1000 nM
- O=C1N(c2ccc3nnc(C(F)(F)F)n3n2)C(=S)N(c2ccc(O)c(F)c2)C12CCC2: > 1000 nM
- CN1CCN(CCCNC(=O)c2ccc(N3C(=S)N(c4cnc(C#N)c(C(F)(F)F)c4)C(=O)C34CCC4)cc2F)CC1: < 1000 nM

In: Fill blank: measured IC50 of the compound "CC(C)(C)OC(=O)N1CCN(c2ccc(N3C(=S)N(c4cnc(C#N)c(C(F)(F)F)c4)C(=O)C34CCC4)cc2)CC1" is ____.
Out: < 1000 nM

In: Which IC50 reading was recorded for the compound "N#Cc1ncc(N2C(=O)C3(CCC3)N(c3ccc(C(=O)O)c(F)c3)C2=S)cc1C(F)(F)F" ?
Out: > 1000 nM

In: Recorded IC50 of "CN1CCC(NC(=O)c2ccc(N3C(=S)N(c4cnc(C#N)c(C(F)(F)F)c4)C(=O)C34CCC4)cc2F)CC1" , please.
Out: > 1000 nM

In: // returns reported IC50 for input "N#Cc1ncc(N2C(=O)C3(CCC3)N(c3ccc(Oc4cncnc4)cc3)C2=S)cc1C(F)(F)F"
Out: < 1000 nM

In: Look at this compound and give its reported IC50. "CN1CCN(Cc2ccc(N3C(=S)N(c4cnc(C#N)c(C(F)(F)F)c4)C(=O)C34CCC4)cc2)CC1"
Out: > 1000 nM

In: Please report the recorded IC50 for "COc1cc(N2C(=S)N(c3cnc(C#N)c(C(F)(F)F)c3)C(=O)C23CCC3)ccc1F" .
Out: < 1000 nM

In: Find the recorded IC50 belonging to "COCCNC(=O)c1ccc(N2C(=S)N(c3cnc(C#N)c(C(F)(F)F)c3)C(=O)C23CCC3)cc1F" and report it.
Out: > 1000 nM

In: Could you tell me which IC50 is on file for "N#Cc1ncc(N2C(=O)C3(CCC3)N(c3ccc(F)c(OCc4ccccc4)c3)C2=S)cc1C(F)(F)F" ?
Out: > 1000 nM

In: Sample "N#Cc1ncc(N2C(=O)C3(CCC3)N(c3ccc(OCCc4ccccn4)cc3F)C2=S)cc1C(F)(F)F" — what was its IC50?
Out: < 1000 nM

----------
List of pIC50 values.
system-under-test: AR-VP16 (Homo sapiens)
Sequence (P10275 560-920 limits assumed): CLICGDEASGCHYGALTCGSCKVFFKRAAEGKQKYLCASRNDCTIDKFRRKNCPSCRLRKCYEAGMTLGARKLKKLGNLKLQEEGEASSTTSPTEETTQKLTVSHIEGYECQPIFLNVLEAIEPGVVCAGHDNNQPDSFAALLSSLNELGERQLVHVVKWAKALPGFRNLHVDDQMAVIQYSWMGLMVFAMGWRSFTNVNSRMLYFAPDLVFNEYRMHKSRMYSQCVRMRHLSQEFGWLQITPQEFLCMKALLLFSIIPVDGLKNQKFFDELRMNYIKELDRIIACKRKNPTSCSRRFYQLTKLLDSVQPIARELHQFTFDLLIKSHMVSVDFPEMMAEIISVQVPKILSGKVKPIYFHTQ
assay-method-text: AR-VP16 DNA Binding Assay, antagonist mode (HepG2 cells, 0.1 nM R1881)
pIC50: −log10 of the molar value.

Known results for molecules:
- Cc1cc(N2C(=O)C3(CCC3)N(c3ccc(Oc4ccncn4)cc3)C2=S)cnc1C#N [Compound 209]: > 6.00
- N#Cc1ncc(N2C(=O)C3(CCC3)N(c3ccc(F)c(C(=O)NCCc4ccccn4)c3)C2=S)cc1C(F)(F)F [Compound 239]: < 6.00
- N#Cc1ncc(N2C(=O)C3(CCC3)N(c3ccc(S(N)(=O)=O)cc3)C2=S)cc1C(F)(F)F [Compound 81]: < 6.00
- N#Cc1ncc(N2C(=O)C3(CCC3)N(c3ccc(OCCc4ccc5ccccc5c4)c(F)c3)C2=S)cc1C(F)(F)F [Compound 141]: < 6.00
- N#Cc1ncc(N2C(=O)C3(CCC3)N(c3ccc(C(=O)NCc4cccnc4)c(F)c3)C2=S)cc1C(F)(F)F [Compound 265]: > 6.00

In: Could you tell me which pIC50 is on file for Cc1ccc(CN2C(=S)N(c3cnc(C#N)c(C(F)(F)F)c3)C(=O)C23CCC3)cc1 [Compound 84] ?
Out: > 6.00

In: Return reported pIC50; argument: N#Cc1ncc(N2C(=O)C3(CCC3)N(c3ccc(C(F)(F)F)cc3)C2=S)cc1C(F)(F)F [Compound 46]
Out: > 6.00

In: Name the recorded pIC50 for NC(=O)c1ncc(N2C(=O)C3(CCC3)N(c3ccc(F)c(C(=O)O)c3)C2=S)cc1C(F)(F)F [Compound 229] .
Out: > 6.00

In: # pIC50 lookup, item CCOC(=O)c1ccc(N2C(=S)N(c3cnc(C#N)c(C(F)(F)F)c3)C(=O)C23CCC3)cc1F [Compound 3]
Out: < 6.00

In: Quick one: pIC50 of Cc1cc(N2C(=O)C3(CCC3)N(c3ccc(-c4cncnc4)cc3)C2=S)cnc1C#N [Compound 103] ?
Out: > 6.00

In: State the recorded pIC50 for this entry: Cc1ccccc1N1C(=S)N(c2cnc(C#N)c(C(F)(F)F)c2)C(=O)C12CCC2 [Compound 20]
Out: > 6.00

Attribution: patent US9108944B2
